- target_or_test_system: T1, human PVRIG on cells (human, UniProt Q6DKI7 1-326)
- T1 construct: whole, on cells; over-expressed on HEK cells or endogenous on Jurkat and CD8 T cells; also called hPVRIG; HEK hPVRIG cells
- T1 sequence (looked up): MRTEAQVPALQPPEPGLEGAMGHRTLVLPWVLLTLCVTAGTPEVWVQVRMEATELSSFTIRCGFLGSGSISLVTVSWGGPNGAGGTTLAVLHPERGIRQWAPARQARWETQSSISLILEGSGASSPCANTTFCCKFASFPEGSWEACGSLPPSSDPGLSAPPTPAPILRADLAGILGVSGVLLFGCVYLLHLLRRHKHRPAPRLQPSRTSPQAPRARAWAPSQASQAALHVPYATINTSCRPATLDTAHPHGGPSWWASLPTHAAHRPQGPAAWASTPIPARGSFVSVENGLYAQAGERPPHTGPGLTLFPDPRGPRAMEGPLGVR
- test: FACS, human PBMC, CD56 int. NK cells, 10ug/ml

| binder | gMFIr Human CD56 int. NK |
| --- | --- |
| CHA.7.534 (antibody, V domains shown) VH: EVQLQQSGAELVKPGASVRLSCTASGFSIRDTYIHWVKQRPEQGLDWIGKIDPANGKSEYDPKFQGRATMTTDTSSNTAYLQLSSLTSEDTAVYYCTRYGYYPYFDVWGAGTTVTVFS VL: SIVMTQTPKFLLVSAGDRVAITCKASQSVRHDVVWYQQKPGQSPKLLIYYASSRYTGVPDRFTGSGYGTDFTFTISTVQAEDLALYFCLQDFSSPWTFGGGTKLEIK | 2.6 |
